Numbers sourced from ChEMBL document CHEMBL1146297.

Experiment: Stability in human serum for 4 hrs
Format: ADME, cell-free
Details: read-out: Stability
attribute-measured: remaining at 4 h (%)
Hi! Could you send only the number? It should be in %, unit omitted.

// query remaining at 4 h for CO[C@H]1O[C@H](CO)[C@@H](O)[C@@H](O)[C@H]1OC(=O)CCC(=O)O[C@@H](C(=O)O[C@H]1C[C@@]2(O)[C@@H](OC(=O)c3ccccc3)[C@@H]3[C@]4(OC(C)=O)CO[C@@H]4C[C@H](O)[C@@]3(C)C(=O)[C@H](OC(C)=O)C(=C1C)C2(C)C)[C@@H](NC(=O)c1ccccc1)c1ccccc1 ?
// result 85
